tested on: sodium channel; assay: [14C] guanidine uptake test (sodium channel inhibition test), veratridine-induced uptake into rat cerebral cortex primary neurons; assay type: cell-based; details: 100 μM veratridine, 25° C., 15 minutes, specific uptake defined by 1 mM mexiletine
Where a name gives a salt, the structure may show the parent alone.
Hi there, I'd appreciate the recorded IC50 for every entry that follows.
Answers are plain numbers, in µM.

O=C(CN1CCOCC1)N1CCC(/C=C/c2ccc(Cl)cc2)CC1
23
O=C(C1CCCN1)N1CCC(/C=C/c2ccc(Cl)cc2)CC1 (centres unmarked)
13
CN(CC(=O)N1CCC(/C=C/c2ccc(Cl)cc2)CC1)C1CCCCC1
3.1
O=C(CN1CCOCC1)N1CCC(/C=C/c2ccccc2Cl)CC1 [Example 1, oxalate]
27
CC(C)Oc1ccccc1/C=C/C1CCN(C(=O)CN2CCOCC2)CC1
16

Working through the 5 molecules below one at a time, give IC50 for each.
1. CC(C)c1ccc(/C=C/C2CCN(C(=O)CN3CCOCC3)CC2)cc1
2. O=C(CN1CCNCC1)N1CCC(/C=C/c2cccc(Cl)c2)CC1 [Example 68, di-hydrochloride]
3. O=C(CN1CCCOCC1)N1CCC(/C=C/c2ccc(Cl)cc2)CC1
4. O=C(CN1CCOCC1)N1CCC(/C=C\c2ccc(Cl)cc2)CC1
5. O=C(CNC1CCCCC1)N1CCC(/C=C/c2ccc(Cl)cc2)CC1

1: 25; 2: 25; 3: 12; 4: 24; 5: 3.4
